# Test system: U2OS
# Assay Protocol: Incucyte cell viability with U2OS; further: unitless GR value; below 1 slowed growth and below 0 cell loss
# Type: toxicity, cell-based
# Experimental Conditions: human, 18 h, 10 µM, compound concentration 10 uM, replicate number 2, timepoint 18 hours
Exercise: for every item that follows, state its recorded Growth Rate.
Please reply with the value in numeric form only.

Lookup: Quick one: Growth Rate for Cl.O=C(O)c1cc(-c2ccc(C3CCNCC3)cc2)c2ccc(-c3ccc(C(F)(F)F)cc3)cc2c1 ?
Found: 0.48

Lookup: What value of Growth Rate has been recorded for this entry: CSc1ccccc1N1CCN(CCCCCC(=O)NC2CCCc3ccccc32)CC1.Cl (configuration not stated)
Found: 0.92

Lookup: Fill blank: measured Growth Rate of the compound O=C(Nc1cc(C(F)(F)F)ccc1N1CCN(Cc2ccccn2)CC1)c1ccc(-c2ccncc2)o1 is ____.
Found: 0.83

Lookup: Consider the compound shown here: CC1(C)SSC(C)(C)[C@@H](NC(=O)[C@@H](N)Cc2ccc(O)cc2)C(=O)NCC(=O)N[C@@H](Cc2ccccc2)C(=O)N[C@H]1C(=O)O.O=C(O)C(F)(F)F What is its recorded Growth Rate?
Found: 0.98

Lookup: Given the compound Br.Cc1cccc(C2CN(C)CCc3c2cc(O)c(O)c3Cl)c1 (configuration not stated) , what is its reported Growth Rate?
Found: 0.92

Lookup: Value lookup for Growth Rate; key = COC(c1ccccc1)(c1ccccc1)[C@H](Oc1nc(C)cc(C)n1)C(=O)O
Found: 0.96

Lookup: Which Growth Rate value is on record for COc1cc(NC(=O)CCN2CCC(OC(=O)Nc3ccccc3-c3ccccc3)CC2)c(Cl)cc1CNC[C@H](O)c1ccc(O)c2[nH]c(=O)ccc12 ?
Found: 0.95

====

# Tested on: HEK-293T
# Assay Protocol: Incucyte cell viability with HEK293T; further: unitless GR value; below 1 slowed growth and below 0 cell loss
# Type: toxicity, cell-based
# Experimental Conditions: human, 12 h, 10 µM, compound concentration 10 uM, replicate number 2, timepoint 12 hours
Measured Quantity: Growth Rate
I only need the number, thanks.

Lookup: Which Growth Rate value is on record for CC[C@H]1CN2CCc3cc(OC)c(OC)cc3[C@@H]2C[C@@H]1C[C@H]1NCCc2cc(OC)c(OC)cc21 [EMETINE] ?
Found: -0.68

Lookup: Data request, read-out Growth Rate, for CCCOc1ccc2[nH]cc(C3=CCNCC3)c2n1.Cl
Found: 0.75

Lookup: Growth Rate for COc1cc(Nc2nc(C)cc(-c3cnn4nc(OC)ccc34)n2)cc(C(F)(F)F)c1 ?
Found: 0.84

====

# System: U2OS
# Assay Protocol: Incucyte cell viability with U2OS; further: unitless GR value; below 1 slowed growth and below 0 cell loss
# Type: toxicity, cell-based
# Experimental Conditions: human, 0 h, 10 µM, compound concentration 10 uM, replicate number 2, timepoint 0 hours
Measured Quantity: Growth Rate
Simply state the number, no unit and no words.

Lookup: Value lookup for Growth Rate; key = C[C@]1(O)CC[C@H]2[C@@H]3CCC4=CC(=O)CCC4=C3C=C[C@@]21C
Found: 0.07

Lookup: For the compound shown here, CCCCC(=O)N(Cc1ccc(-c2ccccc2-c2nnn[nH]2)cc1)[C@H](C(=O)O)C(C)C , give the reported Growth Rate.
Found: -0.99

Lookup: For the compound shown here, CC(COc1ccccc1)N(CCCl)Cc1ccccc1.Cl (stereo not drawn) [PHENOXYBENZAMINE HYDROCHLORIDE] , give the reported Growth Rate.
Found: 0.42

Lookup: Give the measured Growth Rate of Cc1nc(C#Cc2cccnc2)cs1.Cl .
Found: 0.3

Lookup: Suppose we examine the compound COc1ccc2[nH]c(I)c(CCNC(C)=O)c2c1 ; what Growth Rate value has been reported?
Found: -0.81

Lookup: Which Growth Rate is reported for this compound? O=C1NC(NC23CC4CC(CC(C4)C2)C3)=N/C1=C\c1ccc2ncsc2c1
Found: -1

Lookup: Could you tell me which Growth Rate is on file for CN1CCC(c2c[nH]c3ccc(O)cc23)CC1 ?
Found: 0.6

Lookup: // Growth Rate lookup, key: Br.CS(=O)(=O)Nc1c(O)ccc2c1CCCC2C1=NCCN1 (stereo not drawn)
Found: -1

Lookup: Reported Growth Rate, compound Cn1cnc(-c2cc3nccc(Oc4ccc(NC(=S)NC(=O)Cc5ccccc5)cc4F)c3s2)c1 : ____
Found: -0.99

Lookup: # get_value(readout='Growth Rate', item= O=C(O)c1nc2ccccc2c2[nH]c3c(I)cccc3c12 )
Found: -1

Lookup: What does the record list as Growth Rate for Cc1cc(O)c(-c2ccc([C@@H](C)CN(C)C)cc2)c2c1[nH]c(=O)c1sccc12 ?
Found: 1

Lookup: What measured Growth Rate goes with Cc1nn(C)c2nc(NNC(=O)Nc3cc(Cl)nc(Cl)c3)cc(C(C)C)c12 ?
Found: -1

Lookup: So what's the measured Growth Rate for this one? CC(C)NCC(O)COc1cccc2[nH]ccc12 (stereo not drawn)
Found: 0.98

====

# Tested on: HEK-293T
# Assay Protocol: Incucyte cell viability with HEK293T; further: unitless GR value; below 1 slowed growth and below 0 cell loss
# Type: toxicity, cell-based
# Experimental Conditions: human, 12 h, 10 µM, compound concentration 10 uM, replicate number 2, timepoint 12 hours
Ranges used to classify Growth Rate: low class (below 0.4), middle class (0.4 to below 0.8), high class (0.8 or more)

Lookup: // bin(item) where item = c1ccc(NCc2ccc(CNc3ccccn3)cc2)nc1
Found: high class

Lookup: Form field 'band' for COc1cc(Br)c(S(=O)(=O)Nc2ccc(C(F)(F)F)c(O[C@@H]3CCN(C)C3)c2)cc1OC
Found: low class

Lookup: Kindly state the category for this molecule: CC(C)(C)c1ccc(CSc2cnn(C(C)(C)C)c(=O)c2Cl)cc1
Found: low class

Lookup: Which Growth Rate band matches CC[C@H]1OC(=O)[C@H](C)[C@@H](O[C@H]2C[C@@](C)(OC)[C@@H](O)[C@H](C)O2)[C@H](C)[C@@H](O[C@@H]2O[C@H](C)C[C@H](N(C)C)[C@H]2O)[C@@]2(C)CC(C)=C(O2)[C@H](C)[C@@H](O)[C@]1(C)O ?
Found: middle class

Lookup: Classify this molecule: C[C@H]1[C@H](OC(=O)CCC(=O)O)O[C@@H]2O[C@@]3(C)CC[C@H]4[C@H](C)CC[C@@H]1[C@@]24OO3 [ARTESUNATE]
Found: low class

Lookup: Which category does the recorded Growth Rate put COc1cc2nc(N3CCN(C(=O)COc4c(OC)cccc4C(C)C)CC3)nc(N)c2cc1OC.Cl.Cl in?
Found: middle class

Lookup: Quick check: band for O=C(Nc1cc(-c2cn[nH]c2)ccc1N1CCOCC1)c1ccc(-c2ccc3ncccc3c2)o1
Found: low class

Lookup: Where would Cc1cccc(NC(=O)CN2CCC(c3ccccn3)CC2)c1.Cl.Cl land among the classes by reported Growth Rate?
Found: high class

Lookup: Entry CN1CCC(c2c[nH]c3ccc(O)cc23)CC1 belongs to which category?
Found: high class

====

# Tested on: Fibroblast
# Assay Protocol: Incucyte cell viability with human fibroblast; further: unitless GR value; below 1 slowed growth and below 0 cell loss
# Assay type: toxicity, cell-based
# Experimental Conditions: 0 h, 10 µM, compound concentration 10 uM, replicate number 1, timepoint 0 hours
Measured Quantity: Growth Rate
Answer with a bare number; do not write a unit.

Lookup: // Growth Rate lookup, key: O=C(O)CCC/C=C\C[C@H]1C(=O)C[C@@H](O)[C@@H]1/C=C/[C@@H](O)CCc1ccccc1
Found: 0.15

Lookup: For the compound shown here, CCCCC/C=C\C/C=C\C/C=C\C/C=C\CCCC(=O)NCC(=O)O [ARACHIDONOYL GLYCINE] , give the reported Growth Rate.
Found: 0.41

Lookup: So what does the record say about Growth Rate for CCCCC[C@H](O)/C=C/[C@H]1[C@H](O)CC(=O)[C@@H]1CCCCCCC(=O)O [ALPROSTADIL] ?
Found: -0.23

Lookup: What Growth Rate value was documented for this compound, CCCCCCNC(=O)Nc1ccc(S(=O)(=O)Nc2ccc(CCNC[C@H](O)COc3ccc(O)cc3)cc2)cc1 [L-755507] ?
Found: 0.5

Lookup: # get_value(readout='Growth Rate', item= CO[C@H]1CNC[C@@H](OCC2CCC(F)(F)CC2)[C@@H]1Nc1ncc(-c2cncc(C)c2)c2cc(C)c(=O)[nH]c12 )
Found: 0.72

====

# System: Fibroblast
# Assay Protocol: Incucyte cell viability with human fibroblast; further: unitless GR value; below 1 slowed growth and below 0 cell loss
# Assay type: toxicity, cell-based
# Experimental Conditions: 24 h, 10 µM, compound concentration 10 uM, replicate number 1, timepoint 24 hours
Lab note: compare Growth Rate with 0.4, writing 1.0 if less and 0.0 if equal or more.

Lookup: Quick check: Growth Rate of C[C@H]1[C@H]2CC[C@H]3[C@@H]4CC=C5C[C@@H](N(C)C)CC[C@]5(C)[C@H]4CC[C@]23CN1C [CONESSINE] under 0.4?
Found: 0.0

Lookup: A record lists COc1cc2nc(N(C)CCCNC(=O)C3CCCO3)nc(N)c2cc1OC.Cl (stereo not drawn) [ALFUZOSIN HYDROCHLORIDE] . Is its Growth Rate below 0.4?
Found: 0.0

Lookup: # check: Growth Rate < 0.4 for CC(C)CCC[C@@H](C)[C@H]1CC[C@H]2[C@@H]3[C@H](O)C=C4C[C@@H](O)CC[C@]4(C)[C@H]3CC[C@]12C
Found: 0.0

Lookup: Could you please tell me whether Growth Rate recorded for CC(C)OC(=O)N1CCC(Oc2ncnc3c2cnn3-c2ccc(S(C)(=O)=O)cc2F)CC1 is less than 0.4?
Found: 0.0

Lookup: Would you kindly verify if Growth Rate of CSCC[C@H](NC(=O)[C@@H]1CCCN1C(=O)CNC(=O)[C@H](CCCCN)NC(=O)[C@H](Cc1cnc[nH]1)NC(=O)[C@H](CO)NC(=O)[C@H](CC(C)C)NC(=O)[C@H](CCCNC(=N)N)NC(=O)[C@@H]1CCCN1C(=O)[C@H](CCCNC(=N)N)NC(=O)[C@@H](N)CCC(N)=O)C(=O)N1CCC[C@H]1C(=O)N[C@@H](Cc1ccccc1)C(=O)O is strictly less than 0.4?
Found: 0.0

Lookup: Please determine if Cc1cc(C)cc([C@@H]2c3cc(C)ccc3NC(=O)CN2C(=O)c2ccc(Br)s2)c1 is below 0.4 in terms of Growth Rate.
Found: 0.0

Lookup: Is the reported Growth Rate for Cl.O=C1CC[C@@]2(O)[C@H]3Cc4ccc(O)c5c4[C@@]2(CCN3CC2CC2)[C@H]1O5 [NALTREXONE HYDROCHLORIDE] strictly below 0.4?
Found: 0.0

Lookup: Find out if reported Growth Rate for CC(C)c1cc(-c2ccc(F)c3ccccc23)nc(N)n1 is less than 0.4
Found: 0.0

Lookup: # check: Growth Rate < 0.4 for CN(C(=O)c1ccccc1)c1cc(N(C)c2ccc3c(c2)CCc2ccc(C(=O)NCCN4CCOCC4)cc2C3=O)ccc1F [FM-743]
Found: 1.0

Lookup: Is it true that Growth Rate reported for CNCCN1CCC(c2cc(CN(C)C(=O)c3cccc(Oc4ccccc4)c3)ccn2)CC1 is less than 0.4?
Found: 0.0

Lookup: Determine whether this compound shows Growth Rate lower than 0.4 (ties excluded): O=S(=O)(c1ccccc1)c1cnc2c(N3CCNCC3)cccc2c1 [INTEPIRDINE]
Found: 0.0

Lookup: Is the reported Growth Rate for O=C(CCCc1ccccc1)Nc1nc2ccccc2c(=O)s1 strictly below 0.4?
Found: 1.0

Lookup: Does the reported Growth Rate of the following compound sit strictly below 0.4? Cl.Cl.OCCOCCN1CCN(C(c2ccccc2)c2ccc(Cl)cc2)CC1 (stereo not drawn) [HYDROXYZINE HYDROCHLORIDE]
Found: 0.0

Lookup: Growth Rate strictly < 0.4 for this compound? COc1ccc2c(c1)C(C(=O)N(Cc1ccc(N(C)C)cc1)c1ccc(C(C)C)cc1)CCC2.Cl (stereo not drawn)
Found: 0.0

Lookup: # strict comparison: is reported Growth Rate < 0.4? input = Cl.FC(F)(F)c1ccc(N2CCNCC2)nc1Cl
Found: 0.0

Lookup: Growth Rate under 0.4? Item: CN(C)CCCOc1ccc(-c2cc(NCCCn3cccn3)nc(S(C)(=O)=O)n2)cc1
Found: 0.0

Lookup: I wonder whether CCOc1c2c(c(OCC)c3ncccc13)CN(c1ccc(CS(=O)(=O)NC(=O)Cc3ccccc3OC)cc1C)C2=O has Growth Rate below 0.4. Can you tell?
Found: 1.0

Lookup: Hi there! Is Growth Rate for CC(F)(F)CN1CCOc2c(nn(-c3ccccc3Cl)c2-c2ccc(Cl)cc2)C1=O below 0.4, do you know?
Found: 1.0

Lookup: Regarding CC(=O)c1ccc2c(c1)[C@@H]1C=CC[C@@H]1[C@H](c1cc3c(cc1Br)OCO3)N2 , kindly confirm whether its Growth Rate is beneath 0.4.
Found: 1.0

Lookup: Please indicate whether the reported Growth Rate of CS(=O)(=O)c1ccc(C(=O)Nc2ccc(Cl)c(-c3ccccn3)c2)c(Cl)c1 [VISMODEGIB] is strictly below 0.4.
Found: 1.0

Lookup: Confirm or reject: Growth Rate of CN(c1ncccc1CNc1ccnc(-c2cc3cc(Cl)ccc3[nH]2)n1)S(C)(=O)=O lies strictly below 0.4
Found: 1.0

Lookup: In plain terms, does Cc1c(C(=O)Nc2ccc(N3C[C@@H](C)O[C@@H](C)C3)nc2)cccc1-c1ccc(OC(F)(F)F)cc1 [SONIDEGIB] come in under 0.4 for Growth Rate?
Found: 1.0

Lookup: Please state whether Growth Rate is below 0.4 for CCC(=O)NCC[C@@H]1CCc2ccc3c(c21)CCO3 [RAMELTEON]
Found: 0.0

Lookup: Is it true that Growth Rate reported for CCOC(=O)c1c(/C(C#N)=C\N)c2ccc(Cl)c(Cl)c2n1C is less than 0.4?
Found: 1.0

Lookup: Strictly below 0.4 in Growth Rate? Cl.Clc1ccc2nsnc2c1NC1=NCCN1 [TIZANIDINE HYDROCHLORIDE]
Found: 1.0

Lookup: I wonder whether CSc1ccccc1N1CCN(CCCCCC(=O)NC2CCCc3ccccc32)CC1.Cl (stereo not drawn) has Growth Rate below 0.4. Can you tell?
Found: 1.0

Lookup: Bench note: check whether c1ccc(NCc2ccc(CNc3ccccn3)cc2)nc1 shows Growth Rate below 0.4
Found: 0.0
